Biological target: T1, human B7-DC on 293T cells (human, UniProt Q9BQ51 20-273)
T1 construct: whole, on cells; also called PD-L2
T1 sequence (looked up): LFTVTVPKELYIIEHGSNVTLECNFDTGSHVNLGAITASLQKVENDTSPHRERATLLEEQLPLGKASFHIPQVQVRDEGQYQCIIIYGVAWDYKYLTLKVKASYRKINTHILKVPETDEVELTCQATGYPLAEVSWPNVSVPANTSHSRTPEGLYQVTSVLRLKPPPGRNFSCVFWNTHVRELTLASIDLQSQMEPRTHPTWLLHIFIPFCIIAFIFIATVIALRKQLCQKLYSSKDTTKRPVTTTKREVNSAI
Test: FACS, 5 µg/ml antibody, 293T cells transfected with human B7-DC
measurement.name: geo mean
Number only, no unit.

These recorded examples may help you get a feel for the data.
2.7A4 (antibody, IgG2, V domains shown, also called mAb 2.7A4) VH: EVQLVESGGGLVKPGGSLRLSCAASGFTFSTYSMNWVRQAPGKGLEWVSSISSSGDYIYYADSVKGRFTISRDNAKNSLFLQMNSLKAEDTAVYYCARDLVTSMVAFDYWGQGTLVTVSS VL: SYELTQPPSVSVSPGQAARITCSGDALPQKYVFWYQQKSGQAPVLVIYEDSKRPSGIPERFSGSSSGTMATLTISGAQVEDEADYYCYSTDRSGNHRVFGGGTRLTVL | 10.5
2.14H9 (antibody, IgG2, V domains shown, also called mAb 2.14H9) VH: EVQLVESGGGLVQPGGSLRLSCAASGFTFSRYWMSWVRQAPGKGLEWVANIKQDGSEKYYVDSVKGRFTISRDNAKNSLYLQMNSLRAEDTAVYYCAREGGWFGELAFDYWGQGTLVTVSS VL: EIVLTQSPGTLSLSPGERATLSCRASQRVSSSYLAWYQQKPGQAPRLLIYDASSRATGIPDRFSGSGSGTDFTLTISRLEPEDFAVYYCQQYGSLPWTFGQGTEVEIK | 11.4

Quick note, geo mean for 2.9D10 (antibody, V domains shown, Tested as hybridoma supernatant or purified antibody; also called mAb 2.9D10) VH: EVQLVESGGGLVQPGGSLRLSCAASGFTFSSYWMSWVRQAPGKGLEWVANIKQDGGEQYYVDSVKGRFTISRDNAKNSLYLQMNSLRAEDTAVYYCARDWNYGYYDMDVWGQGTTVTVSS VL: EIVLTQSPGTLSLSPGERATLSCRASQSVSSNYLAWFQQKPGQAPRLLIFGTSSRATGIPDRFSGSGSGTDFTLTISRLEPEDFAVYYCQQYGSSIFTFGPGTKVDIK landed at 8.7
